Molecular target: SARS-COV-2 RBD extracellular domain expressed with a C-terminal mouse IgG2a Fc (SARS-CoV-2)
Assay: Biacore SPR, mAb captured on anti-hFc, 25 C
Listed below: t½ values for each entry.
OBSERVED_PROPERTY: t½ (h)

>  <BINDER>
mAb14280 (antibody, V domains shown) VH: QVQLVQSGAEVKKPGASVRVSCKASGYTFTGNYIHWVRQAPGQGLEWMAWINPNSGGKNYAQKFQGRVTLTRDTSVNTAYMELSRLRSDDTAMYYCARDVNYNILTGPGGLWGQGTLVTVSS VL: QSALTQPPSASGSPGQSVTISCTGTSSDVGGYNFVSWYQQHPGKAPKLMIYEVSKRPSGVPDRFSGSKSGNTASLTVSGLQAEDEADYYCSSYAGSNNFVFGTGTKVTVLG

>  <RECORDED_VALUE>
0.52

$$$$
>  <BINDER>
mAb15170 (antibody, V domains shown) VH: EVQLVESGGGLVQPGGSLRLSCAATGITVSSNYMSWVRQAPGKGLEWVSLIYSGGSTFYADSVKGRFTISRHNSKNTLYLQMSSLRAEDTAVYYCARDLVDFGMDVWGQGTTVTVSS VL: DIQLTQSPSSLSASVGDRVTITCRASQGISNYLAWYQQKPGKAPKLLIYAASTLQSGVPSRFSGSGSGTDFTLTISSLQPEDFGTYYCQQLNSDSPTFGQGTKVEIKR

>  <RECORDED_VALUE>
19.2

$$$$
>  <BINDER>
mAb15159 (antibody, V domains shown) VH: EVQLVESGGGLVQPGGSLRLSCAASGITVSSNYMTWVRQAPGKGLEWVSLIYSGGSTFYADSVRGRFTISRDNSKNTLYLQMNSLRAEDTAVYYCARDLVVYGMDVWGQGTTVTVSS VL: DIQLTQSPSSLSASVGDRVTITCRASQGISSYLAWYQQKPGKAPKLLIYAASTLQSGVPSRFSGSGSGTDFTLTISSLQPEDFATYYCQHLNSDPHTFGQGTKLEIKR

>  <RECORDED_VALUE>
16.2

$$$$
>  <BINDER>
mAb14256 (antibody, V domains shown) VH: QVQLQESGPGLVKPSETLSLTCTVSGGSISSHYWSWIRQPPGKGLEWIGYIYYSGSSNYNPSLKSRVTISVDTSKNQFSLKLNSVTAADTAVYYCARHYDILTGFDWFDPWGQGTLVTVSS VL: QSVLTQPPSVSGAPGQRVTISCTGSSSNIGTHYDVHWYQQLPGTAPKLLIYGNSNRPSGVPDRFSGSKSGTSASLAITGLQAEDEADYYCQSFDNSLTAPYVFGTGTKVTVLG

>  <RECORDED_VALUE>
1.06

$$$$
>  <BINDER>
mAb14315 (antibody, V domains shown) VH: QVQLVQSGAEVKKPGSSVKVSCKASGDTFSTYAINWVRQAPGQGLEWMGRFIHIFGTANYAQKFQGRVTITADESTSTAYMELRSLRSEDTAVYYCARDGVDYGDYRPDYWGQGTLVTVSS VL: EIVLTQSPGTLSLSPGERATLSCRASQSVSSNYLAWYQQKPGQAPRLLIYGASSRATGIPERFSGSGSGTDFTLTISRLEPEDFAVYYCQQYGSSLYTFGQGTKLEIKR

>  <RECORDED_VALUE>
3.07

$$$$
